The origin of these recorded values is PubChem BioAssay AID330.

Test system: P388 leukemia ip, CD2F1 mice, survival T/C
assay info: NCI In Vivo Anticancer Drug Screen. Data for tumor model P388 Leukemia (intraperitoneal) in CD2F1 (CDF1) mice
conditions: endpoint: median survival time; dose: 12.5 mg/kg/injection; schedule: Q01DX009 (ip); vehicle: other; higher = longer survival
Method: The antitumor activity of compounds was measured in mice bearing transplantable tumors. Survival or tumor size were measured and the results are expressed as the measurement made in the treated group (T) divided by the measurement made in the vehicle treated control group (C). The tumor model used in this assay is P388 Leukemia (intraperitoneal) in CD2F1 (CDF1) mice
Inconclusive results and toxic doses are left out. Square brackets hold non-standard residues; d marks the D form. Peptide text beside a SMILES is read from it. * marks the point of attachment. ξ: configuration not given here. Nphe = O=C(O)CNCc1ccccc1; ξL = CC(C)CC(N)C(=O)O; Ms = CS(=O)(=O)*
observation type: T/C

[[record]]
compound = "CCOC(OCC)C(=O)NNS(=O)(=O)c1ccc(C)cc1"
recorded_measurement = "105 % of control"


Exercise: Look up T/C of `O=C(C/[N+]([O-])=C/c1ccccc1)OCc1ccccc1` and report it.
Solution: 112 % of control

Exercise: Look up T/C of COc1cccc2c1C(=O)c1c(O)c3c(c(O)c1C2=O)CC(O)(C(=O)COC(C)C)CC3O (centres undefined) and report it.
Solution: 103 % of control

Exercise: Look up T/C of CC(C)CC(NC(=O)CN(Cc1ccccc1)S(C)(=O)=O)C(=O)O (centres undefined) (Ms-[Nphe]-[ξL]-OH) and report it.
Solution: 100 % of control

Exercise: Look up T/C of `COc1cc2ccc3c[n+](C)ccc3c2cc1OC` and report it.
Solution: 107 % of control

Exercise: Look up T/C of COc1cccc2c1C(=O)c1c(O)c3c(c(O)c1C2=O)C/C(=N/O)CC3OC1CC(NC(=O)C(F)(F)F)C(O)C(C)O1 (centres undefined) and report it.
Solution: 110 % of control

Exercise: Look up T/C of COc1cccc2c1C(=O)c1c(O)c3c(c(O)c1C2=O)CC(O)(c1cscn1)CC3O (centres undefined) and report it.
Solution: 105 % of control

Exercise: Look up T/C of CCSC(SCC)C(NC(C)=O)C(OC(C)=O)C(OC(C)=O)C(COC(C)=O)OC(C)=O (centres undefined) and report it.
Solution: 107 % of control

Exercise: Look up T/C of `CCOC(=O)c1csc(CCNC(=O)c2ccccc2)n1` and report it.
Solution: 103 % of control
